Test system: Mycobacterium tuberculosis H37Rv
Experiment: MIC determination by MABA (Microplate Alamar Blue Assay)
Type: cell-based
Conditions: Mycobacterium tuberculosis, H37RV; value printed in parentheses after the bound <12.5; read-out: MIC H37Rv (µg/ml), value in parentheses

givenSmiles	resultUnit	MIC
CC(=NNc1nc(-c2ccccc2O)cs1)c1ccc2c(c1)CCC2	µg/mL	0.2
CC(=NNc1nc(-c2ccc(C)cc2O)cs1)c1ccc2c(c1)CCC2	µg/mL	0.05
CC(=NNc1nc(-c2ccc(Br)cc2)cs1)c1ccc2c(c1)CCC2	µg/mL	0.39
CC(=NNc1nc(-c2ccc(Cl)cc2)cs1)c1ccc2c(c1)CCC2	µg/mL	0.39

The reported numbers originate from patent EP3958860B1.
